The origin of these recorded values is BindingDB's records for doi:10.1016/j.bmcl.2003.12.063.

Attribute: pIC50
- Target Under Test: Ileal sodium/bile acid cotransporter (Mesocricetus auratus)
- Measurement Notes: In vitro Inhibition of apical sodium-dependent bile acid transporter by measuring the uptake of [3H]taurocholate in hamster ileal ring
The meaning of pIC50 here: minus log10 of the concentration in molar units.

# compound "CCN(C(=O)c1cn(-c2cc(OC)cc(OC)c2)c2cc(OCCCCCCCC[N+]34CCN(CC3)CC4)ccc2c1=O)c1cc(F)cc(F)c1" ; its pIC50 = 5.97

# compound CCC(CC)CC(=O)c1c(C(=O)OC)c(-c2ccc(OC)c(OC)c2)c2c(OC)c(OC)c(OC)cc2c1OC1O[C@H](C(=O)O)[C@@H](O)[C@H](O)[C@H]1O (stereo not given in full) ; its pIC50 = 5.55

# compound "CCN(C(=O)c1cn(-c2cc(OC)cc(OC)c2)c2cc(OCCCCCCC[N+]34CCN(CC3)CC4)ccc2c1=O)c1cc(F)cc(F)c1" ; its pIC50 = 6.11
